# Assay Explanation: Powder dissolution, USP/NF paddle method with HPLC analysis
# Format: physicochemical
# Conditions: 1 min; 500 mg in 900 mL water, 37 °C, 75 rpm; replicate #1; trihydrate
The reader will find reported Amoxicillin released in solution #1 values listed item by item below.
// note: answer is a bare numeric in %

Example entries and their recorded answers appear below.
CC1(C)S[C@@H]2[C@H](NC(=O)[C@H](N)c3ccc(O)cc3)C(=O)N2[C@H]1C(=O)O.O.O.O [entry 6, amoxicillin trihydrate] ... 70.98
CC1(C)S[C@@H]2[C@H](NC(=O)[C@H](N)c3ccc(O)cc3)C(=O)N2[C@H]1C(=O)O.O.O.O [entry 3, amoxicillin trihydrate] ... 57.32

Shifting focus to the compound that follows.
### Prompt # return recorded Amoxicillin released in solution #1 for input CC1(C)S[C@@H]2[C@H](NC(=O)[C@H](N)c3ccc(O)cc3)C(=O)N2[C@H]1C(=O)O.O.O.O [entry 4, amoxicillin trihydrate]
### Response 54.49

----------
# Assay Explanation: Powder dissolution, USP/NF paddle method with HPLC analysis
# Format: physicochemical
# Conditions: 5 min; 500 mg in 900 mL water, 37 °C, 75 rpm; replicate #3; trihydrate
Readout Kind: Amoxicillin released in solution #3 (%)
// note: answer is a bare numeric in %

Example entries and their recorded answers appear below.
CC1(C)S[C@@H]2[C@H](NC(=O)[C@H](N)c3ccc(O)cc3)C(=O)N2[C@H]1C(=O)O.O.O.O [entry 3, amoxicillin trihydrate] ... 98.80
CC1(C)S[C@@H]2[C@H](NC(=O)[C@H](N)c3ccc(O)cc3)C(=O)N2[C@H]1C(=O)O.O.O.O [entry 2, amoxicillin trihydrate] ... 97.29
CC1(C)S[C@@H]2[C@H](NC(=O)[C@H](N)c3ccc(O)cc3)C(=O)N2[C@H]1C(=O)O.O.O.O [entry 1, amoxicillin trihydrate] ... 99.54
CC1(C)S[C@@H]2[C@H](NC(=O)[C@H](N)c3ccc(O)cc3)C(=O)N2[C@H]1C(=O)O.O.O.O [entry 4, amoxicillin trihydrate] ... 84.47
CC1(C)S[C@@H]2[C@H](NC(=O)[C@H](N)c3ccc(O)cc3)C(=O)N2[C@H]1C(=O)O.O.O.O [entry 5, amoxicillin trihydrate] ... 79.73

### Prompt # return recorded Amoxicillin released in solution #3 for input CC1(C)S[C@@H]2[C@H](NC(=O)[C@H](N)c3ccc(O)cc3)C(=O)N2[C@H]1C(=O)O.O.O.O [entry 6, amoxicillin trihydrate]
### Response 84.94

----------
# Assay Explanation: Powder dissolution, USP/NF paddle method with HPLC analysis
# Assay type: physicochemical
# Conditions: 10 min; 500 mg in 900 mL water, 37 °C, 75 rpm; replicate #2; trihydrate
The reader will find reported Amoxicillin released in solution #2 values listed item by item below.
// note: answer is a bare numeric in %

Example entries and their recorded answers appear below.
CC1(C)S[C@@H]2[C@H](NC(=O)[C@H](N)c3ccc(O)cc3)C(=O)N2[C@H]1C(=O)O.O.O.O [entry 1, amoxicillin trihydrate] ... 99.04
CC1(C)S[C@@H]2[C@H](NC(=O)[C@H](N)c3ccc(O)cc3)C(=O)N2[C@H]1C(=O)O.O.O.O [entry 3, amoxicillin trihydrate] ... 99.42

Shifting focus to the compound that follows.
### Prompt # return recorded Amoxicillin released in solution #2 for input CC1(C)S[C@@H]2[C@H](NC(=O)[C@H](N)c3ccc(O)cc3)C(=O)N2[C@H]1C(=O)O.O.O.O [entry 6, amoxicillin trihydrate]
### Response 82.85

----------
# Assay Explanation: Powder dissolution, USP/NF paddle method with HPLC analysis
# Format: physicochemical
# Conditions: 30 min; 500 mg in 900 mL water, 37 °C, 75 rpm; replicate #3; trihydrate
Readout Kind: Amoxicillin released in solution #3 (%)
// note: answer is a bare numeric in %

CC1(C)S[C@@H]2[C@H](NC(=O)[C@H](N)c3ccc(O)cc3)C(=O)N2[C@H]1C(=O)O.O.O.O [entry 2, amoxicillin trihydrate] ... 99.34
CC1(C)S[C@@H]2[C@H](NC(=O)[C@H](N)c3ccc(O)cc3)C(=O)N2[C@H]1C(=O)O.O.O.O [entry 6, amoxicillin trihydrate] ... 97.81

Shifting focus to the molecule that follows.
### Prompt # return recorded Amoxicillin released in solution #3 for input CC1(C)S[C@@H]2[C@H](NC(=O)[C@H](N)c3ccc(O)cc3)C(=O)N2[C@H]1C(=O)O.O.O.O [entry 3, amoxicillin trihydrate]
### Response 99.14

----------
The reader will find reported Amoxicillin released in solution #3 values listed item by item below.
# Assay Explanation: Powder dissolution, USP/NF paddle method with HPLC analysis
# Type: physicochemical
# Conditions: 90 min; 500 mg in 900 mL water, 37 °C, 75 rpm; replicate #3; trihydrate
// note: answer is a bare numeric in %

Example entries and their recorded answers appear below.
CC1(C)S[C@@H]2[C@H](NC(=O)[C@H](N)c3ccc(O)cc3)C(=O)N2[C@H]1C(=O)O.O.O.O [entry 2, amoxicillin trihydrate] ... 98.96
CC1(C)S[C@@H]2[C@H](NC(=O)[C@H](N)c3ccc(O)cc3)C(=O)N2[C@H]1C(=O)O.O.O.O [entry 5, amoxicillin trihydrate] ... 98.47
CC1(C)S[C@@H]2[C@H](NC(=O)[C@H](N)c3ccc(O)cc3)C(=O)N2[C@H]1C(=O)O.O.O.O [entry 6, amoxicillin trihydrate] ... 99.78
CC1(C)S[C@@H]2[C@H](NC(=O)[C@H](N)c3ccc(O)cc3)C(=O)N2[C@H]1C(=O)O.O.O.O [entry 4, amoxicillin trihydrate] ... 100.66
CC1(C)S[C@@H]2[C@H](NC(=O)[C@H](N)c3ccc(O)cc3)C(=O)N2[C@H]1C(=O)O.O.O.O [entry 1, amoxicillin trihydrate] ... 99.74

### Prompt # return recorded Amoxicillin released in solution #3 for input CC1(C)S[C@@H]2[C@H](NC(=O)[C@H](N)c3ccc(O)cc3)C(=O)N2[C@H]1C(=O)O.O.O.O [entry 3, amoxicillin trihydrate]
### Response 99.46

----------
# Assay Explanation: Particle size distribution by laser diffraction (Malvern)
# Type: physicochemical
# Conditions: trihydrate
Average Particle Size D100 strictly less than 200 μm = Yes. Otherwise No.

CC1(C)S[C@@H]2[C@H](NC(=O)[C@H](N)c3ccc(O)cc3)C(=O)N2[C@H]1C(=O)O.O.O.O [entry 5, amoxicillin trihydrate] ... Yes
CC1(C)S[C@@H]2[C@H](NC(=O)[C@H](N)c3ccc(O)cc3)C(=O)N2[C@H]1C(=O)O.O.O.O [entry 4, amoxicillin trihydrate] ... Yes

### Prompt Given the entry CC1(C)S[C@@H]2[C@H](NC(=O)[C@H](N)c3ccc(O)cc3)C(=O)N2[C@H]1C(=O)O.O.O.O [entry 1, amoxicillin trihydrate] , would its reported Average Particle Size D100 be below 200 μm?
### Response No

### Prompt Given the entry CC1(C)S[C@@H]2[C@H](NC(=O)[C@H](N)c3ccc(O)cc3)C(=O)N2[C@H]1C(=O)O.O.O.O [entry 2, amoxicillin trihydrate] , would its reported Average Particle Size D100 be below 200 μm?
### Response No

### Prompt Given the entry CC1(C)S[C@@H]2[C@H](NC(=O)[C@H](N)c3ccc(O)cc3)C(=O)N2[C@H]1C(=O)O.O.O.O [entry 6, amoxicillin trihydrate] , would its reported Average Particle Size D100 be below 200 μm?
### Response Yes

### Prompt Given the entry CC1(C)S[C@@H]2[C@H](NC(=O)[C@H](N)c3ccc(O)cc3)C(=O)N2[C@H]1C(=O)O.O.O.O [entry 3, amoxicillin trihydrate] , would its reported Average Particle Size D100 be below 200 μm?
### Response No

----------
# Assay Explanation: Powder dissolution, USP/NF paddle method with HPLC analysis
# Format: physicochemical
# Conditions: 60 min; 500 mg in 900 mL water, 37 °C, 75 rpm; replicate #3; trihydrate
Readout Kind: Amoxicillin released in solution #3 (%)
// note: answer is a bare numeric in %

Example entries and their recorded answers appear below.
CC1(C)S[C@@H]2[C@H](NC(=O)[C@H](N)c3ccc(O)cc3)C(=O)N2[C@H]1C(=O)O.O.O.O [entry 6, amoxicillin trihydrate] ... 99.69
CC1(C)S[C@@H]2[C@H](NC(=O)[C@H](N)c3ccc(O)cc3)C(=O)N2[C@H]1C(=O)O.O.O.O [entry 3, amoxicillin trihydrate] ... 100.92
CC1(C)S[C@@H]2[C@H](NC(=O)[C@H](N)c3ccc(O)cc3)C(=O)N2[C@H]1C(=O)O.O.O.O [entry 5, amoxicillin trihydrate] ... 95.65
CC1(C)S[C@@H]2[C@H](NC(=O)[C@H](N)c3ccc(O)cc3)C(=O)N2[C@H]1C(=O)O.O.O.O [entry 4, amoxicillin trihydrate] ... 98.65
CC1(C)S[C@@H]2[C@H](NC(=O)[C@H](N)c3ccc(O)cc3)C(=O)N2[C@H]1C(=O)O.O.O.O [entry 1, amoxicillin trihydrate] ... 99.10

Shifting focus to the compound that follows.
### Prompt # return recorded Amoxicillin released in solution #3 for input CC1(C)S[C@@H]2[C@H](NC(=O)[C@H](N)c3ccc(O)cc3)C(=O)N2[C@H]1C(=O)O.O.O.O [entry 2, amoxicillin trihydrate]
### Response 99.60

# credit: patent US9820943B2
